Kindly state total FIC50 for each of the entries shown.
System: Mycobacterium tuberculosis Erdman (autoluminescent)
Assay: total FIC50 (Loewe) at 50% inhibition, three-drug combination (log2); higher = more antagonistic
Settings: in vitro model: valerate; time point: terminal (~4-5 doublings, model-specific)

Consider the following illustrative entries.
1. COc1nc2ccc(Br)cc2cc1[C@@H](c1ccccc1)[C@@](O)(CCN(C)C)c1cccc2ccccc12 [bedaquiline] + CC[C@@H](CO)NCCN[C@@H](CC)CO [ethambutol] + O=[N+]([O-])c1cn2c(n1)OC[C@@H](OCc1ccc(OC(F)(F)F)cc1)C2 [pretomanid]; 0.257
2. COc1nc2ccc(Br)cc2cc1[C@@H](c1ccccc1)[C@@](O)(CCN(C)C)c1cccc2ccccc12 [bedaquiline] + CC[C@@H](CO)NCCN[C@@H](CC)CO [ethambutol] + CO[C@H]1/C=C/O[C@@]2(C)Oc3c(C)c(O)c4c(O)c(c(/C=N/N5CCN(C6CCCC6)CC5)c(O)c4c3C2=O)NC(=O)/C(C)=C\C=C\[C@H](C)[C@H](O)[C@@H](C)[C@@H](O)[C@@H](C)[C@H](OC(C)=O)[C@@H]1C [rifapentine]; 0.823

// next item, total FIC50 requested
**Q:** Find the recorded total FIC50 belonging to COc1nc2ccc(Br)cc2cc1[C@@H](c1ccccc1)[C@@](O)(CCN(C)C)c1cccc2ccccc12 [bedaquiline] + NNC(=O)c1ccncc1 [isoniazid] + CO[C@H]1/C=C/O[C@@]2(C)Oc3c(C)c(O)c4c(O)c(c(/C=N/N5CCN(C6CCCC6)CC5)c(O)c4c3C2=O)NC(=O)/C(C)=C\C=C\[C@H](C)[C@H](O)[C@@H](C)[C@@H](O)[C@@H](C)[C@H](OC(C)=O)[C@@H]1C [rifapentine] and report it.
**A:** 1.05

----------
System: Mycobacterium tuberculosis Erdman (autoluminescent)
Experiment: Einf, fitted maximum growth inhibition of three-drug combination (fraction); higher = stronger maximal inhibition
Settings: in vitro model: butyrate; time point: terminal (~4-5 doublings, model-specific)
REPORTED_METRIC: Einf
Give bare numbers.

Consider the following illustrative entries.
1) COc1nc2ccc(Br)cc2cc1[C@@H](c1ccccc1)[C@@](O)(CCN(C)C)c1cccc2ccccc12 [bedaquiline] + CC(C)/N=c1\cc2n(-c3ccc(Cl)cc3)c3ccccc3nc-2cc1Nc1ccc(Cl)cc1 [clofazimine] + CC(=O)NC[C@H]1CN(c2ccc(N3CCOCC3)c(F)c2)C(=O)O1 [linezolid]; 0.977
2) CC[C@@H](CO)NCCN[C@@H](CC)CO [ethambutol] + COc1c(N2C[C@@H]3CCCN[C@@H]3C2)c(F)cc2c(=O)c(C(=O)O)cn(C3CC3)c12 [moxifloxacin] + O=[N+]([O-])c1cn2c(n1)OC[C@@H](OCc1ccc(OC(F)(F)F)cc1)C2 [pretomanid]; 0.968

// next item, Einf requested
**Q:** Find the recorded Einf belonging to NNC(=O)c1ccncc1 [isoniazid] + CC(=O)NC[C@H]1CN(c2ccc(N3CCOCC3)c(F)c2)C(=O)O1 [linezolid] + CO[C@H]1/C=C/O[C@@]2(C)Oc3c(C)c(O)c4c(O)c(c(/C=N/N5CCN(C)CC5)c(O)c4c3C2=O)NC(=O)/C(C)=C\C=C\[C@H](C)[C@H](O)[C@@H](C)[C@@H](O)[C@@H](C)[C@H](OC(C)=O)[C@@H]1C [rifampicin] and report it.
**A:** 0.958
